Kindly state melting point for each of the entries shown.

Study these solved cases before continuing.
compound | melting point
CCOC(=O)C(C#N)Cc1cc(OC)c(OC)cc1C (centres undefined) | 39 to 40 °C
CC1Cc2cc3c(cc2C(c2ccc([N+](=O)[O-])cc2)=NN1C1=NCCO1)OCO3 (centres undefined) | 194 to 196 °C
COC(=O)c1cc(C=O)ccc1[N+](=O)[O-] | 76.7 °C
NC(=O)c1c(C(=O)O)cnn1-c1cccc(F)c1 | 215 to 216 °C

I have 6 compounds here; please give me melting point for each one.
1. COc1cccc(-c2cncc(OC3SCC(O)C(O)C3O)c2)c1 (centres undefined)
2. NCc1ccn(-c2cc3c(cc2[N+](=O)[O-])[nH]c(=O)c(=O)n3CC(=O)O)c1
3. CSc1nsc(-c2ccccc2)n1
4. O=c1c2ccc(O)cc2nc(-c2ccc(O)cc2)n1-c1ccc(OCCCl)cc1
5. CC(C)(C)C(=O)Oc1ccc(S(=O)(=O)c2ccc(S(N)(=O)=O)s2)cc1
6. N#Cc1ccc(OCc2ccsc2)cc1OC(C(=O)O)c1ccccc1Cl (racemic)

Reply:
1: 200 °C; 2: > 270 °C; 3: 57.1 °C; 4: 285 to 287 °C; 5: 192 to 195 °C; 6: 68 to 70 °C

I have 2 compounds here; please give me melting point for each one.
1. Cc1cc(CC2SCNC2=O)cc(C(C)(C)C)c1O (centres undefined)
2. CCN(CC)Cc1cnc2c(C)c(NC(=O)c3ccc(-c4ccc(F)cc4)cc3)ccc2c1

Reply:
["64 to 68 °C", "155 to 156 °C"]

I have 2 compounds here; please give me melting point for each one.
1. COc1cc(C)cc(C(=O)NC(C)P(=O)(O)O)c1C1=CC(=O)c2c(O)cccc2C1=O (centres undefined)
2. O=C(NO)[C@H](CNS(=O)(=O)c1ccc(OCc2ccccc2)cc1)N1CCOCC1

Reply:
1: > 300 °C; 2: 142 °C

I have 6 compounds here; please give me melting point for each one.
1. COC(=O)COc1ccc2cc(CNC(=O)OC(C)(C)C)ccc2c1Br
2. O=C(c1ccc(O)cc1O)c1ccccc1F
3. CCOc1nc(C(F)(F)F)cc(=O)n1-c1cc(OC)c(Cl)cc1F
4. COc1nn(-c2cccc(N3CCCC3=O)c2)c(=O)n(Cc2ccc(Cl)cc2)c1=O
5. CCOC(=O)c1cn(Cc2ccccc2OC)c2sc(-c3ccc(OC)cc3)c(C)c2c1=O
6. CC(C)(C)c1ccc(Cn2c(=O)n(Cc3ccc(C(C)(C)C)cc3)c3ccccc32)cc1

Reply:
["96 to 100 °C", "109 to 111 °C", "117 to 119 °C", "91 to 93 °C", "165 to 167 °C", "164 to 168 °C"]

###

Kindly state melting point for each of the entries shown.

Study these solved cases before continuing.
molecule | melting point
Cn1c(COc2ccc(CC3SC(=O)NC3=O)cc2)nc2ccc(OCCc3ccc(C(C)(C)C)c(NC(=O)Nc4ccc(C(F)(F)F)cc4)c3)cc21 (centres undefined) | 165 to 167 °C
Cc1cc2oc(=O)c3c(c2cc1C)CCN(CCN1CC2CCC(CC2)C1)C3 | 174 to 175 °C

I have 2 molecules here; please give me melting point for each one.
1. O=S1(=O)c2sccc2C=C(CO)N1CCN1CCOCC1
2. CC(C)(C)OC(=O)N(C(=N)N)C(=O)OC(C)(C)C

Reply:
["119 to 121 °C", "144 to 145 °C"]
